Recorded Log D7.4 by entry
experiment: Distribution coefficient determination, D7.4 (1-octanol / MOPS buffer pH 7.4)
Assay type: physicochemical
test_context: pH 7.4, 1-octanol/MOPS buffer
endpoint_name: Log D7.4

[
  {
    "compound": "CC(C)CCOC(=O)[C@H](N)CCC(=O)N[C@H](Cc1c[nH]c2ccccc12)C(=O)OCCC(C)C.Cl [Apo848]",
    "reported_measurement": 2.1
  },
  {
    "compound": "COC(=O)[C@H](N)CCC(=O)N[C@H](Cc1c[nH]c2ccccc12)C(=O)OC [Apo840, H-D-Glu(D-Trp-O—Me)—O—Me, reference compound]",
    "reported_measurement": 0.57
  },
  {
    "compound": "COC(=O)[C@@H](Cc1c[nH]c2ccccc12)NC(=O)CC[C@@H](N)C(=O)O [H-D-Glu(D-Trp-OMe)-OH, reference compound]",
    "reported_measurement": "−0.89"
  },
  {
    "compound": "N[C@H](CCC(=O)N[C@H](Cc1c[nH]c2ccccc12)C(=O)O)C(=O)O [Apo805, D-gamma-glutamyl-D-tryptophan]",
    "reported_measurement": "−3.22"
  }
]
